experiment: Permeability of the compound at pH 5.5 by PAMPA; type: ADME; conditions: read-out: permeability
Listed below: Papp values for each entry.
Lab book: enter the figure in ×10⁻⁶ cm/s, no units written.

Solved cases (4 shown):
• COc1cccc([C@@H](C)NC(=O)c2ccc(-c3cn[nH]c3)c(C)c2)c1 = 29
• COc1cc(NC(=O)[C@H](N)CCc2ccccc2)ccc1-c1cn[nH]c1 = 45
• COc1cc(C(=O)N[C@H](C)c2c(F)cccc2F)ccc1-c1cn[nH]c1 = 61
• COc1cc(C(=O)N[C@H](CO)c2ccccc2)ccc1-c1cn[nH]c1 = 10.5

Now examine the next entry.
Task: Answer with the recorded Papp for the compound listed here: "COc1cc(C(=O)N[C@@H](c2ccccc2F)C(C)(C)O)ccc1-c1cn[nH]c1"
Result: 52
